# study_system: T1, OX40 on a functional cell line overexpressing OX40 (UniProt P43489 29-277, limits assumed)
# T1 sequence (looked up): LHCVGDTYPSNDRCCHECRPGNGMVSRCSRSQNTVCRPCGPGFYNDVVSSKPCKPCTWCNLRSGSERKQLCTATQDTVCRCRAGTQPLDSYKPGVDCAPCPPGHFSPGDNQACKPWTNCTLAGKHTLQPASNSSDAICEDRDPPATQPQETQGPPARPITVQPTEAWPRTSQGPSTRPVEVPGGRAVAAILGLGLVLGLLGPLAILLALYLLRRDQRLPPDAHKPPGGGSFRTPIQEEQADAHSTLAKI
# experiment: cell-based or functional assay
measurement_name: IL-8 secretion by OX40 overexpressing functional cell line, best-fit value Top
Write the value as a bare number.

Input: Value lookup for IL-8 secretion by OX40 overexpressing functional cell line, best-fit value Top; key = AH02923 humanized anti-human OX40 monoclonal antibody (recombinant human IgG1/kappa) (antibody, V domains shown) VH: QVQLVQSGAEVKKPGASVKVSCKASGYTFTDYSMHWVRQAPGQGLEWMGWISTETGEPTYADDFKGRFTFTLDTSASTAYLELSSLRSEDTAVYYCARVRPWYLAVWGQGTLVTVSS VL: DIQMTQSPSSLSASVGDRVTITCRASQDISNYLNWYQQKPGKAVKLLIYYTSRLYSGVPSRFSGSGSGTDYTFTISSLQPEDIATYYCQQANTLPLTFGGGTKLEIK
Output: 21000
